All figures here come from paper PMC10786891.

Biological target: T1, EsCas13d, nuclease-dead (Eubacterium siraeum, UniProt B0MS50, R295A;H300A;R849A;H854A)
T1 sequence: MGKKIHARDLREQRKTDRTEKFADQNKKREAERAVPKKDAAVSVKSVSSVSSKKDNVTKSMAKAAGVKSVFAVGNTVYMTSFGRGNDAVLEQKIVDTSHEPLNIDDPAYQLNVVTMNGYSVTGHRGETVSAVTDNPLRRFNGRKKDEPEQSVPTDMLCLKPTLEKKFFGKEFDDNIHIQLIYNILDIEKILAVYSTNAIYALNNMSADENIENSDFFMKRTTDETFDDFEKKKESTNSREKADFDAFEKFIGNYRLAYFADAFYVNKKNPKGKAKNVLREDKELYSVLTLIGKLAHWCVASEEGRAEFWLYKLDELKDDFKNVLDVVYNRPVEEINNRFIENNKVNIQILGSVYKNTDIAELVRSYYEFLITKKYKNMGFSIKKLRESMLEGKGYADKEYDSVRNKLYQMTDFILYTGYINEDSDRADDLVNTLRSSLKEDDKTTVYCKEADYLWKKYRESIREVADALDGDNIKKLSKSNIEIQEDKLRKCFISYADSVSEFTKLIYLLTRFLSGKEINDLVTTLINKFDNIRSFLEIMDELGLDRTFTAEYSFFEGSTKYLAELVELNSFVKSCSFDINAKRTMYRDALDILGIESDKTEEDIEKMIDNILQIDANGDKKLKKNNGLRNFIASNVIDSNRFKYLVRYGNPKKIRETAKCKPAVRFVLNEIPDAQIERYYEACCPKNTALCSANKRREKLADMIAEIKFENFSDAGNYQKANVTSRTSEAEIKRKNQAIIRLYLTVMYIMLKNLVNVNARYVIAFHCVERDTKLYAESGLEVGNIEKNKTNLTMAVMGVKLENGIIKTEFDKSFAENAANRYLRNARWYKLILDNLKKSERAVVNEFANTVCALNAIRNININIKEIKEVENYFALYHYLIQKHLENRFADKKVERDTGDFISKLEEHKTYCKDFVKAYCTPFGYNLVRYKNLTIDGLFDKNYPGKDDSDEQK
Experiment: crRNA (strand 1, pre-loaded); Mg2+; 40 mM Tris-HCl pH 7.5, 150 mM NaCl, 6 mM MgCl2, 1 mM DTT, 0.1% Tween-20, 0.2 mg/ml BSA; 25 C; 10 min per concentration, then washed
Conditions: tags: His6-TwinStrep-SUMO cleaved; N-terminal SNAP kept (SNAP-Surface 488); label: 3' end held by stalled T7 RNA polymerase
resultType: pKd
pKd (log units): -log10 of the concentration in mol/L.

Exercise: Note pKd for the binder shown: target 2 MT 5'PFS ACG 3'PFS UAG (mixed) RNA 1: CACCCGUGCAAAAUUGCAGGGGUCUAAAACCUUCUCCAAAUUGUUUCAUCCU RNA 2: GGGAAUGGAUCCACAUCUACGAAUUCACGAGGAUGAAACAAUUUGGAGAAGUAGAGAUCGGAAGAGCACACGU
Key: 8.34

Exercise: Note pKd for the binder shown: target 1 insC 3' of 22,insA 3' of 19 (mixed) RNA 1: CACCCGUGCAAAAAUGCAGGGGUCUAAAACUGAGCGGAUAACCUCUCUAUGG RNA 2: GGGAAUGGAUCCACAUCUACGAAUUCGUACCCAUAAGAGAGGUUAUCCGCUCACCGAGAUCGGAAGAGCACACGU
Key: 7.52

Exercise: Note pKd for the binder shown: target 3 C1U,U22G (mixed) RNA 1: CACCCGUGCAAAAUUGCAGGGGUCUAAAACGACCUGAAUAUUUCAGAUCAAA RNA 2: GGGAAUGGAUCCACAUCUACGAAUUCGUUGUUGAUCUGAAAUAUUCAGGUUUGCAGAUCGGAAGAGCACACGU
Key: 7.11

Exercise: Note pKd for the binder shown: target 3 G3U,U22G (mixed) RNA 1: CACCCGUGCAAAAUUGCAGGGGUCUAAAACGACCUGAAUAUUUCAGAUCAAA RNA 2: GGGAAUGGAUCCACAUCUACGAAUUCGUUGUUGAUCUGAAAUAUUCAGUUCUGCAGAUCGGAAGAGCACACGU
Key: 7.03

Exercise: Note pKd for the binder shown: target 2 MT 5'PFS UAC 3'PFS CGA (mixed) RNA 1: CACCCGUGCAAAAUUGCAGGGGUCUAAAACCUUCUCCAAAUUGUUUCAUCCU RNA 2: GGGAAUGGAUCCACAUCUACGAAUUCUACAGGAUGAAACAAUUUGGAGAAGCGAAGAUCGGAAGAGCACACGU
Key: 8.22

Exercise: Note pKd for the binder shown: target 2 MT 5'PFS GGA 3'PFS UCU (mixed) RNA 1: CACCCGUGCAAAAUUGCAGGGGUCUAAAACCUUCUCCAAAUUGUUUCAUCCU RNA 2: GGGAAUGGAUCCACAUCUACGAAUUCGGAAGGAUGAAACAAUUUGGAGAAGUCUAGAUCGGAAGAGCACACGU
Key: 7.66

Exercise: Note pKd for the binder shown: target 2 MT 5'PFS AAG 3'PFS CAU (mixed) RNA 1: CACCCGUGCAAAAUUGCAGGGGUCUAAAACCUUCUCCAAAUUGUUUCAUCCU RNA 2: GGGAAUGGAUCCACAUCUACGAAUUCAAGAGGAUGAAACAAUUUGGAGAAGCAUAGAUCGGAAGAGCACACGU
Key: 8.47
